Numbers sourced from PubChem BioAssay (NCI).

test system: HCC-2998 colon; test: NCI-60 one-dose screen, 48 h (100 = growth as untreated, 0 = no growth, -100 = all killed); settings: 10 µM unless noted
About 83,000 compounds went through this panel and 20% of them were active in at least one assay; those are over-represented in the sample as a whole.
Binarize growth at 90%; below is T, at or above is F.

**Query** Determine whether this compound shows growth lower than 90% (ties excluded): Cc1ccc(-c2nc(/C=N/Nc3cc(C)nc4ccc(Br)cc34)c(C)o2)cc1
**Result** T

**Query** Continue with C[C@@H]1CC[C@@H]2[C@@H]1[C@H](OC(=O)/C=C/c1ccccc1)[C@]1(c3ccccc3)C[C@@H](OC(=O)CO)[C@@]2(C)O1
**Result** F

**Query** Now the same for O=[N+]([O-])c1cccc(C2CC(c3ccccc3)=Nc3ccccc3S2)c1 (stereo not given)
**Result** F

**Query** Try this compound next: Cc1ccc(-c2nc(/C=N/Nc3cc(C)nc4ccc(Cl)cc34)c(C)o2)cc1
**Result** T

**Query** Also check COc1ccc(S(=O)(=O)NCCNc2nccc(-c3c(-c4cccc(N)c4)nc4sccn34)n2)cc1
**Result** F

**Query** Thanks! And CC1=CC(=O)CC(C)(C)[C@@]1(O)/C=C/[C@@H](C)O ?
**Result** F

**Query** Note, next up: CCN(CC)CCC(=O)Nc1ccc(Cn2nnc3c2C(=O)c2nnn(Cc4ccc(NC(=O)CCN(CC)CC)cc4)c2C3=O)cc1
**Result** T

**Query** And the next one, CCCCOc1ccc(NC(=O)n2nc(NC(C)=O)c3cc(NC(C)=O)ccc32)cc1 ?
**Result** F

**Query** Now try CCCCCCCCCCCCNC(=O)[C@H]1CSC(c2ccc(OC)c(F)c2)N1 (stereo not given in full) .
**Result** T

**Query** Then CCCCCCCCCCCCN1CCCC(C)C1 (stereo not given) ?
**Result** T

**Query** Repeat with CN1CCN(Cc2ccc(NC(=O)c3cncc(C#Cc4cncc5nccnc45)c3)cc2C(F)(F)F)CC1
**Result** T

**Query** Then what about the compound COc1c(Cl)cc(Cl)cc1Cl ?
**Result** F

**Query** Another compound to check: CC1CN(Cc2ccco2)C(=S)N(c2ccccc2)C1=O (stereo not given)
**Result** F

**Query** Next: Oc1ccc2c(=S)cc(-c3ccc(Br)cc3)oc2c1O
**Result** T

**Query** And for COc1ccc(Cl)cc1Nc1nc(C(F)(F)F)ccc1C(=O)N/N=C/c1cccnc1 ?
**Result** T

**Query** Next record, please: CCN(CC)CCCC(C)N/C(=C1\C(=O)NC(=O)\C1=C(/NC(C)CCCN(CC)CC)c1cccc(OC)c1)c1cccc(OC)c1 (stereo not given)
**Result** T

**Query** Try this compound too: CCCCN(CCCC)CCC(C)(O)c1cc2ccccc2c2ccccc12 (stereo not given)
**Result** T

**Query** Query COc1ccc(CNc2nccnn2)cc1 next
**Result** F

**Query** What do you have for CN(C)C(=O)c1cc2cnc(Nc3ccc(-c4csc5c(=O)cc(N6CCNCC6)oc45)cc3)nc2n1C1CCCC1 ?
**Result** T

**Query** Repeat for the following compound: O=C1C[C@H](N2C(=O)c3ccccc3S2(=O)=O)C2CO[C@@H]1O2
**Result** F

**Query** Cool, now CNCCCn1c2c(c3ccc([N+](=O)[O-])cc3c1=O)C(=O)c1cc(OC)cnc1-2
**Result** T

**Query** Lookup Cn1c2ccccc2c2c3c(c4c5ccccc5[nH]c4c21)C(=O)N(N)C3=O
**Result** T

**Query** Could you do the same for Cc1nc2sc(C(=O)Nc3cccc4c3OCCO4)c(N)c2cc1C(C)O (stereo not given) , please?
**Result** T

**Query** What would you report for O=c1c2c3c(sc2n2c(CCl)nnc2n1Cc1ccccc1)CCCC3 ?
**Result** T

**Query** C=C1CC[C@@H]2[C@](C)(COC(C)=O)[C@H](OC(C)=O)CC[C@@]2(C)[C@@H]1CC(Nc1ccc(S(=O)(=O)Nc2nc(C)cc(C)n2)cc1)C1=CCOC1=O (stereo not given in full) ?
**Result** F

**Query** Another compound to check: Cn1c(=O)c2c(ncn2CC[N+](C)(C)C)n(C)c1=O
**Result** F

**Query** Then this compound: CCCCCCCCCCNC(=O)CCl
**Result** T

**Query** And for O=C1Nc2ccc(Br)cc2C12CC(c1ccccc1)=NN2 (stereo not given) ?
**Result** T

**Query** Now give it for Clc1ccc(-c2nnc(COc3ccccc3Cl)o2)cc1 too.
**Result** T

* * *

tested on: 786-0 renal; test: NCI-60 one-dose screen, 48 h (100 = growth as untreated, 0 = no growth, -100 = all killed); conditions: 10 µM unless noted
Compounds without any hit were thinned out: in the full panel of roughly 83,000, 20% have a hit.
Please provide measured growth for the entries that follow.
Report the figure in % without appending any unit label.

**Query** Entry CC(=O)Nc1ccc2c(c1)c(NC(C)=O)nn2C(=O)Nc1ccc(Cc2ccccc2)cc1 has what growth?
**Result** 67.9

**Query** Also C=C1C(=O)O[C@H]2[C@H]1CC/C(Cn1cc(Cn3ccc4ccccc43)nn1)=C\CC[C@@]1(C)O[C@@H]21 ?
**Result** -19.5

**Query** Now give it for O=C1C2CC=CCC2C(=O)N1CNc1ccc(Cl)cc1 (centres undefined) too.
**Result** 89.4

**Query** Next compound: O=C(NCc1cccc(C(F)(F)F)c1)[C@H](CCC(=O)N1CCN(C2CCCCC2)CC1)N1C(=O)[C@@H](N2C(=O)OC[C@@H]2c2ccccc2)[C@H]1/C(Cl)=C/c1ccccc1
**Result** 49.9

**Query** Please give the result for COc1ccc2nc3cc(Cl)ccc3c(N3CCN(c4nccc(Nc5ccc(Cl)cc5)n4)CC3)c2c1 too.
**Result** 42.2

**Query** Lookup Nc1nc2ccc(-c3nc4ccc5[nH]ncc5c4c4c3CCC4)cc2s1
**Result** 25.6

**Query** Moving on to O=C1Nc2ccccc2C12CC(c1ccccc1)=NN2 (centres undefined)
**Result** 61.7

**Query** How about this compound: c1ccc2c(Nc3cccc4ccccc34)cccc2c1
**Result** 81.2

**Query** Continue with O=C(/C=C/c1ccc(B(O)O)cc1)/C=C/c1ccc(B(O)O)cc1
**Result** -72.5

**Query** Likewise for Cn1c(=O)c2[nH]c(C(O)C(O)C(O)C(O)CO)nc2n(C)c1=O (centres undefined) ?
**Result** 107

**Query** Note, next up: O=C1C=CC(Nc2ccccc2[N+](=O)[O-])C1Nc1ccccc1[N+](=O)[O-] (centres undefined)
**Result** -76.7

**Query** Please do the same for COc1ccc(C/C(C)=C(\c2ccc(Cl)cc2)c2ccc(OCCN3CCCCCC3)cc2)cc1 as well.
**Result** 86.3

**Query** Repeat for the following compound: OC(c1cccc(C(F)(F)F)c1)c1cnccc1NC1CCCCCC1 (centres undefined)
**Result** 56.2

**Query** Try the compound CCOC(=O)c1c2ncccc2n2c(=O)n(-c3ccc(Cl)cc3)nnc12
**Result** 97.1

**Query** Next: CCCCCCCCSC1=CC(=O)C(OC)=C(OC)C1=O
**Result** 61.9

**Query** And what about the compound CN(C)c1ccc(C2Nc3ccccc3-n3cccc32)cc1 (centres undefined) ?
**Result** 108

**Query** Same thing, different compound: O=c1c2c3c(sc2n2c(CCl)nnc2n1Cc1ccccc1)CCCC3
**Result** -18

**Query** Consider next the compound O=C1c2cccnc2C(=O)c2c1c(C(=O)OCCN1CCOCC1)c1ccccn21 in the same way.
**Result** 2.64

**Query** Try this compound next: Cc1ccc(-c2nc(/C=N/Nc3cc(C)nc4ccc(Cl)cc34)c(C)o2)cc1
**Result** -93.2

**Query** Input CCOC(=O)CC(C)=N
**Result** 103

**Query** How about COCCCNc1nc(NC(=O)c2ccc(F)cc2C)cc(-c2cccnc2)n1 ?
**Result** 98.4

**Query** Next record, please: S=c1[nH]nc(CSc2ncnc3c2c(-c2ccccc2)cn3-c2ccc(Cl)cc2)o1
**Result** 102

**Query** How about CN1/C(=C\C=C\C2=[N+](C)c3ccccc3C2(C)C)C(C)(C)c2ccccc21 ?
**Result** 2.93

**Query** // query: O=C(O)C(O)C(O)C(=O)O.[NH-]C1CCCCC1[NH-].[Pt+2] (centres undefined)
**Result** 99.9

**Query** Here is the next compound: O=S(=O)(NCCCNc1cc(-c2cn(-c3ccccc3)nc2-c2ccccc2)ccn1)c1ccc(C(F)(F)F)cc1
**Result** 29

**Query** Repeat with O=[N+]([O-])c1c(F)cccc1Nc1cccc(F)c1
**Result** 93.9

**Query** Would you kindly repeat that for O=C1NC(=O)C(CC(=O)n2c(-c3ccccc3)nc3ccccc32)C(=O)N1 ?
**Result** 99.7

**Query** // next record CN(C)CCCC(=O)Nc1ccc(Cn2nnc3c2C(=O)c2nnn(Cc4ccc(NC(=O)CCCN(C)C)cc4)c2C3=O)cc1
**Result** 96.9

**Query** Okay, and C=C1CC2(OC1=O)C(=O)N(CCCCCCCN1C(=O)C3(CC(=C)C(=O)O3)c3ccccc31)c1ccccc12 (centres undefined) ?
**Result** 46.7

**Query** Another compound: O=S(=O)(Nc1ccc(F)c(Cl)c1)c1ccc(-c2cnc(C3CC3)o2)cc1
**Result** 43.2

**Query** Follow-up entry: CCCCCCCCCCCCS(=O)CC(C)O (centres undefined)
**Result** 102

**Query** Next record, please: CSc1nc(NCCCNc2ccnc3cc(Cl)ccc23)cc(-c2ccccc2)n1
**Result** 72.9

**Query** Continue with COc1cc(NCCCCN=C(N)NC(N)=NC(C)C)c2ncccc2c1
**Result** 106

**Query** Now the compound O=C(CO[N+](=O)[O-])Nc1ccc(C(=O)/C=C/c2ccc3c(c2)OCO3)cc1
**Result** 109
